# test.system: JAK3 (Homo sapiens (Human), UniProt P52333)
# Sequence (P52333 whole entry): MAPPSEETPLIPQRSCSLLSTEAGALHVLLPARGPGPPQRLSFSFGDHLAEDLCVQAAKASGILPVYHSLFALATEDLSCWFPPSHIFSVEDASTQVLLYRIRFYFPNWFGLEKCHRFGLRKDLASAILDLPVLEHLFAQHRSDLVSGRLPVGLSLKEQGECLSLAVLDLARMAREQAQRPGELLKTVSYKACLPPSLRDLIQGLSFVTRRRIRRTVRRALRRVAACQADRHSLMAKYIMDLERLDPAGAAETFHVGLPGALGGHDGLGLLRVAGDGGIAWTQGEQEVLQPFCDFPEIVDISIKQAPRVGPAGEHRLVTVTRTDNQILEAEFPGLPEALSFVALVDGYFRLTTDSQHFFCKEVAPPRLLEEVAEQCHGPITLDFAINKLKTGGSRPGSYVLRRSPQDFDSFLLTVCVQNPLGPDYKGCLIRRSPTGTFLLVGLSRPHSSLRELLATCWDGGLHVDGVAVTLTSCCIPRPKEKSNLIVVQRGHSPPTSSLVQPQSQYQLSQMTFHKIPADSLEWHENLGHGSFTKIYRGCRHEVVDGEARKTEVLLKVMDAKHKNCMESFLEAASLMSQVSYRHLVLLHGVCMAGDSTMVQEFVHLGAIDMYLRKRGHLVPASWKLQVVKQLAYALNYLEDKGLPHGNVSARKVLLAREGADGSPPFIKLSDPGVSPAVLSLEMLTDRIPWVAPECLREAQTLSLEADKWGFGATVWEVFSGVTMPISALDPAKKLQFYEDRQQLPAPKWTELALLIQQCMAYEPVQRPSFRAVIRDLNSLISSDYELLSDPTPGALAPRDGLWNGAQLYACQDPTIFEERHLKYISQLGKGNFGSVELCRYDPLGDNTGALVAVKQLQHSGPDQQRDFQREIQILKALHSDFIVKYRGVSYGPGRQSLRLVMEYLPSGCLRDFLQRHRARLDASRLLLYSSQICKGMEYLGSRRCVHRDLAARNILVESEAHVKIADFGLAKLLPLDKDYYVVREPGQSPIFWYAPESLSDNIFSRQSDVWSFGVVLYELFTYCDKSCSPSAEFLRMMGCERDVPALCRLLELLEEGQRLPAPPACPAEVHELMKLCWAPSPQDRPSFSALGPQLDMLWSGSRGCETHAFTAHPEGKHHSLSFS
# experimental.details: JAK3 enzyme assay (Z'-LYTE)
# Format: biochemical
# experimental.conditions: 10 μM ATP; arithmetic mean of two or more experiments
readout.name: JAK3 enz pIC50

Some solved cases for reference:
- compound: "CC(=O)N1CCC(n2c(=O)n(C)c3cnc(Nc4cc5ccnnc5cc4C)nc32)CC1 [Example 1]"
  test.system: "JAK3 (Homo sapiens (Human), UniProt P52333)"
  JAK3 enz pIC50: "<5"
- compound: "Cc1cc2nccnc2cc1Nc1ncc2c(n1)n([C@]1(C)CC[C@H](O)CC1)c(=O)n2C [Example 20]"
  test.system: "JAK3 (Homo sapiens (Human), UniProt P52333)"
  JAK3 enz pIC50: "<5"

Field JAK3 enz pIC50 (entry CC(=O)N1CCC(n2c(=O)n(C)c3cnc(Nc4cc5ncc(C)nc5cc4C)nc32)CC1 [Example 4] ) reads <5

----------
DNA-PK enz pIC50 values by entry
# test.system: Full length human DNAPK protein (Homo sapiens (Human), UniProt P78527)
# experimental.details: DNAPK enzyme potency assay (DNA-PK enz), TR-FRET
# Type: biochemical
# experimental.conditions: arithmetic mean of two or more experiments; 18 μM ATP
// return a plain number; no unit text

Examples with answers:
- compound: "Cc1cc2nnccc2cc1Nc1ncc2c(n1)n([C@@H]1CCCOC1)c(=O)n2C [Example 25]"
  DNA-PK enz pIC50: 9.7
- compound: "Cc1cc2nnccc2cc1Nc1ncc2c(n1)n([C@@H]1CCOC1)c(=O)n2C [Example 23]"
  DNA-PK enz pIC50: 9.4
- compound: "Cc1cc2nccnc2cc1Nc1ncc2c(n1)n([C@]1(C)CC[C@H](O)CC1)c(=O)n2C [Example 20]"
  DNA-PK enz pIC50: 10.0
- compound: "CC(=O)N1CCC(n2c(=O)n(C)c3cnc(Nc4cc5ccnnc5cc4C)nc32)CC1 [Example 1]"
  DNA-PK enz pIC50: 10.0
- compound: "Cc1cc2ncccc2cc1Nc1ncc2c(n1)n([C@@H]1CCNC[C@@H]1F)c(=O)n2C [Example 38]"
  DNA-PK enz pIC50: 8.0
- compound: "CC(=O)N1CCC(n2c(=O)n(C)c3cnc(Nc4cc5ncc(C)nc5cc4C)nc32)CC1 [Example 4]"
  DNA-PK enz pIC50: 9.0
- compound: "Cc1cc2nccnc2cc1Nc1ncc2c(n1)n([C@@H]1CCCOC1)c(=O)n2C [Example 26]"
  DNA-PK enz pIC50: 9.8
- compound: "COCCN1CCC(n2c(=O)n(C)c3cnc(Nc4cc5cccnc5cc4C)nc32)CC1 [Example 49]"
  DNA-PK enz pIC50: 8.8
- compound: "Cc1cc2ncccc2cc1Nc1ncc2c(n1)n(C1COC1)c(=O)n2C [Example 36]"
  DNA-PK enz pIC50: 9.7
- compound: "CC(=O)N1CCC(n2c(=O)n(C)c3cnc(Nc4cc5nccnc5cc4C)nc32)CC1 [Example 2]"
  DNA-PK enz pIC50: 9.8

Item: Cc1cc2ncccc2cc1Nc1ncc2c(n1)n(C1CCN(C3COC3)CC1)c(=O)n2C [Example 47] | DNA-PK enz pIC50: 9.0

----------
Documented JAK3 enz pIC50 across a set of compounds
# test.system: JAK3 (Homo sapiens (Human), UniProt P52333)
# experimental.details: JAK3 enzyme assay (Z'-LYTE)
# Type: biochemical
# experimental.conditions: 10 μM ATP; arithmetic mean of two or more experiments
# Protocol: The inhibitory activity of compounds against AURKA, AURKB, JAK1, JAK2 and JAK3 was determined in Z′-LYTE® assays run by ThermoFisher Scientific as part of their SelectScreen® Biochemical Kinase Profiling Service. The Z′-LYTE® biochemical assay format employs a fluorescence-based, coupled-enzyme format and is based on the differential sensitivity of phosphorylated and non-phosphorylated peptides to proteolytic cleavage. […]

Before answering, review these 3 worked examples.
- smiles.repr: "Cc1cc2nnccc2cc1Nc1ncc2c(n1)n([C@H]1CC[C@@H](O)CC1)c(=O)n2C"
  JAK3 enz pIC50: "<5"
- smiles.repr: "Cc1cc2ncccc2cc1Nc1ncc2c(n1)n(C1CCN(CCO)CC1)c(=O)n2C"
  JAK3 enz pIC50: "<5"
- smiles.repr: "Cc1cc2ncccc2cc1Nc1ncc2c(n1)n(C1CCS(=O)(=O)CC1)c(=O)n2C"
  JAK3 enz pIC50: 5.2

Turning now to a further compound:
Reported JAK3 enz pIC50 (JAK3 (Homo sapiens (Human), UniProt P52333)) for entry "Cc1cc2ncccc2cc1Nc1ncc2c(n1)n(C1CCN(C3COC3)CC1)c(=O)n2C" is <5
